Consider the following molecules; for each one, report its GI50.
system: M14; assay: The concentration of compound required for 50% cell growth inhibition which was expressed in logarithmic form was measured on M14 cell lines of Melanoma; assay type: functional; conditions: Homo sapiens
Answers are plain numbers, in µM.

- QUERY SMILES: "CN(CCNc1ccc2ncn3c4ccccc4c(=O)c1c23)CCNc1ccc2ncn3c4ccccc4c(=O)c1c23"
  UNITS SYMBOL: "µM"
  GI50: 4.07
- QUERY SMILES: "CN(CCCN)CCCNc1ccc2ncn3c4ccccc4c(=O)c1c23"
  UNITS SYMBOL: "µM"
  GI50: 1.78

Now look at this entry.
Which GI50 value belongs to CN(CCCNc1ccc2ncn3c4ccccc4c(=O)c1c23)CCCNc1ccc2ncn3c4ccc(C(C)(C)C)cc4c(=O)c1c23 ? 2.04

The reported measurements were obtained from ChEMBL document CHEMBL1128499.
